Tested on: 786-0 renal
Assay: NCI tumour cell line growth inhibition, 48 h

molecule: Brc1ccc(C2=NCSC(c3ccc(Br)cc3)=N2)cc1
system.tested: 786-0 renal
bound.operator: =
TGI (µM): 40.4
//
molecule: COCCN(C(=O)c1ccccc1)C1CCC2(SCCS2)c2[nH]c3ccccc3c21 (configuration not stated)
system.tested: 786-0 renal
bound.operator: >
TGI (µM): 100
//
molecule: O=C(O)/C=C/c1ccc(O)c(O)c1
system.tested: 786-0 renal
bound.operator: >
TGI (µM): 100
//
molecule: COc1ccc(/C=C/C(=O)c2cc(OC)cc(OC)c2)cc1
system.tested: 786-0 renal
bound.operator: =
TGI (µM): 11.2
//
molecule: CS(=O)(=O)OCCN(CCOS(C)(=O)=O)c1ccc(C=Nc2ccc(-c3csc(COc4ccccc4)n3)cc2)cc1
system.tested: 786-0 renal
bound.operator: =
TGI (µM): 4.52
//
molecule: Cn1cc(C2=C(c3ccsc3)C(=O)NC2=O)c2ccccc21
system.tested: 786-0 renal
bound.operator: >
TGI (µM): 25
//
molecule: C/C(CN1C(=O)c2ccccc2C1=O)=N\NS(=O)(=O)c1ccc2ccccc2c1
system.tested: 786-0 renal
bound.operator: >
TGI (µM): 100

====

Test system: HT29 colon
Experiment: NCI tumour cell line growth inhibition, 48 h

compound: O=C(/C=C/c1ccccc1)NC1C=Nc2ccc([N+](=O)[O-])cc2NC1=O (stereo not given)
system.tested: HT29 colon
TGI: > 100 µM
--
compound: Cn1cc(C2NC(=O)c3ccccc3N2)c2ccccc21 (stereo not given)
system.tested: HT29 colon
TGI: 0.86 µM
--
compound: CC(C)(CN1CCCCC1)C(=O)/C=C/c1ccccc1
system.tested: HT29 colon
TGI: 36.4 µM
--
compound: CCCCCCCCCCCCCCCCOCC(COP(=O)(O)OCC1OC(n2cc(CC)c(=O)[nH]c2=O)CC1O)OC(=O)CCCCCCCCCCCCCCC (stereo not given)
system.tested: HT29 colon
TGI: > 100 µM
--
compound: COc1nc(NC2OC(COC(C)=O)C(OC(C)=O)C(OC(C)=O)C2OC(C)=O)c(N=CC=Nc2c(NC3OC(COC(C)=O)C(OC(C)=O)C(OC(C)=O)C3OC(C)=O)nc(OC)[nH]c2=O)c(=O)[nH]1 (stereo not given)
system.tested: HT29 colon
TGI: > 100 µM
--
compound: COc1ccc(N2C(=O)c3cc([N+](=O)[O-])cnc3S2(=O)=O)cc1
system.tested: HT29 colon
TGI: > 100 µM
--
compound: O=C(O)/C=C/c1ccc(O)c(O)c1
system.tested: HT29 colon
TGI: > 100 µM
--
compound: COC(=O)/C=C1\SC2(OC1=Nc1ccccc1)C1CC3CC(C1)CC2C3 (stereo not given)
system.tested: HT29 colon
TGI: > 100 µM
--
compound: CS(=O)(=O)OCCN(CCOS(C)(=O)=O)c1ccc(C=Nc2ccc(-c3csc(COc4ccccc4)n3)cc2)cc1
system.tested: HT29 colon
TGI: 23.6 µM
--
compound: CN(C)c1cccc(-c2cc(=S)c3cc4c(cc3[nH]2)OCO4)c1
system.tested: HT29 colon
TGI: 24.7 µM
--
compound: COCCN(C(=O)c1ccccc1)C1CCC2(SCCS2)c2[nH]c3ccccc3c21 (stereo not given)
system.tested: HT29 colon
TGI: > 100 µM
--
compound: O=C(O)c1ccc(N(/C=C/C(=O)C(F)(F)F)Cc2ccc(Cl)cc2)cc1
system.tested: HT29 colon
TGI: > 100 µM
--
compound: O=[N+]([O-])c1ccc(C2=NCCO2)cc1
system.tested: HT29 colon
TGI: > 100 µM
--
compound: CC(C)(C)CC(C)(C)c1ccc(OCCO)cc1
system.tested: HT29 colon
TGI: 28.1 µg/mL
--
compound: O=C(NCc1cn(Cc2cccc(Oc3ccccc3)c2)nn1)c1cccnc1Nc1ccc(F)cc1
system.tested: HT29 colon
TGI: > 100 µM
--
compound: Nc1ccc(/C=C/c2ccc3ncccc3c2)cc1
system.tested: HT29 colon
TGI: > 100 µM
--
compound: C=CCC1(O)c2ccccc2C(=O)c2c(OCC(=O)OCC)ccc(OCC(=O)OCC)c21 (stereo not given)
system.tested: HT29 colon
TGI: > 100 µM
--
compound: CC(CN1NC12CCCC2)N1NC12CCCC2 (stereo not given)
system.tested: HT29 colon
TGI: > 100 µM
--
compound: CN1CCN(Cn2nc(COc3ccccc3Cl)n(/N=C/c3ccc(-c4ccc(Cl)cc4Cl)o3)c2=S)CC1
system.tested: HT29 colon
TGI: 42.9 µM
--
compound: Cc1ccc(S(=O)(=O)NNC(=O)Nc2cccc(C(F)(F)F)c2)cc1
system.tested: HT29 colon
TGI: > 100 µM

====

Test system: ACHN renal
Test: NCI tumour cell line growth inhibition, 48 h; in the data active = GI50 below about 0.43 µM; inactive = the rest
Classes used: True for active, False for inactive

compound: O=C(/C=C\c1ccc(O)c(O)c1)c1ccccc1O
system.tested: ACHN renal
cat: False
--
compound: COc1cccc2c1nc(C(F)F)n2-c1nc(-c2ccc(NS(=O)(=O)CCN(C)C)cc2)nc(N2CCOCC2)n1
system.tested: ACHN renal
cat: True
--
compound: CCCCn1c(=O)[nH]c(N)c([C@@H]2c3c([nH]c(=O)n(CCCC)c3=O)Oc3ccc4ccccc4c32)c1=O
system.tested: ACHN renal
cat: False
--
compound: CNC(=O)Oc1cc(C(C)C)ccc1Sc1ccc(C(C)C)cc1OC(=O)NC
system.tested: ACHN renal
cat: False
--
compound: COc1cc(/C=C2\CC3C4CC=C5CC(OC(C)=O)CC[C@]5(C)C4CC[C@]3(C)C2=O)ccc1OCCN1CCCC1 (some centres undefined)
system.tested: ACHN renal
cat: False
--
compound: COc1ccc(C2=NN(C(N)=S)C(c3ccc4c(c3)OCO4)C2)cc1 (centres undefined)
system.tested: ACHN renal
cat: False
--
compound: Cn1cc(C2=C(c3ccsc3)C(=O)NC2=O)c2ccccc21
system.tested: ACHN renal
cat: False
--
compound: C/C(=C\C(=O)O[C@H]1[C@@H]2[C@H](C)CC[C@H]2[C@]2(C)O[C@@]1(C1CCCCC1)C[C@H]2OC(=O)CO)c1ccccc1
system.tested: ACHN renal
cat: True
--
compound: CN(C)CCC(N)(P(=O)([O-])[O-])P(=O)([O-])[O-].N.N.[Pt+2]
system.tested: ACHN renal
cat: False
--
compound: COC(=O)[C@@H](C)C[C@H](Cc1ccccc1)NC(=O)c1nc([C@@H](C[C@H](C(C)C)N(C)C(=O)[C@@H](NC(=O)[C@H]2C[C@H](O)CCN2C)C(C)C)OC(C)=O)sc1C(C)C
system.tested: ACHN renal
cat: True
--
compound: CCC(=C(c1ccc(OCCN2CCCCC2)cc1)c1ccc(OCCN2CCCCC2)cc1)c1ccc(Cl)cc1
system.tested: ACHN renal
cat: False
--
compound: COc1cc(/C=C/C(=O)c2cccc(-n3cc(-c4ccccc4)[nH]c3=O)c2)cc(OC)c1OC
system.tested: ACHN renal
cat: False
--
compound: CC(C)=CCC/C(C)=C/CC/C(C)=C/CSC[C@H](NC(=O)CCCCCN1CCN(C)CC1)C(=O)NC1CCCCCC1
system.tested: ACHN renal
cat: False
--
compound: ClC1=C(Cl)C(Cl)(C2(Cl)C(Cl)=C(Cl)C(Cl)=C2Cl)C(Cl)=C1Cl
system.tested: ACHN renal
cat: True

====

System: SNB-19 CNS
Assay: NCI tumour cell line growth inhibition, 48 h

compound: CCCCNC(=O)OCCN=c1c2ccccc2ccc2ccccc12
TGI: > 100 µM

compound: O=C(O)C(Cc1cc(I)c(O)c(I)c1)C1CCCCC1 (configuration not stated)
TGI: > 100 µM

compound: O=C(O)c1ccccc1CN1CCCC(C(=O)O)C1 (configuration not stated)
TGI: > 100 µM

compound: O=C(N/N=C/c1ccc(Cl)cc1)c1ccc(NC(=O)c2ccccn2)cc1
TGI: > 100 µM

compound: O=C(O)/C=C\C(=O)Nc1ccc2c(c1)-c1ccccc1C2
TGI: > 100 µM

compound: CC1CCCCCC(=O)c2c(O)cc(O)cc2CC(=O)O1 (configuration not stated)
TGI: > 100 µM

compound: COc1ccc(C2=NN(C(N)=S)C(c3ccc4c(c3)OCO4)C2)cc1 (configuration not stated)
TGI: 22.8 µM

compound: COC(=O)N[C@H]1CCc2cc(OC)c(OC)c(OC)c2-c2ccc(SC)c(=O)cc21
TGI: > 100 µM

compound: C=CC1(C)CCC2C(=CCC3C2(C)CC(O)C(O)C3(C)COC2OC(CO)C(O)C(O)C2O)C1 (configuration not stated)
TGI: > 100 µM

compound: O=c1nc2n(-c3cccc(Cl)c3)c3ccc([N+](=O)[O-])cc3cc-2c(=O)[nH]1
TGI: > 25 µM

compound: CC(C)=CC[C@@H]1CC2(CC=C(C)C)C(=O)C(OC3(C(=O)c4ccccc4)C(=O)C4(CC=C(C)C)C[C@@H](CC=C(C)C)C(C)(C)C(CC=C(C)C)(C4=O)C3=O)(C(=O)c3ccccc3)C(=O)C(CC=C(C)C)(C2=O)C1(C)C (some centres not stated)
TGI: 6.65 µM

compound: O=C(O)/C=C/c1ccc(O)c(O)c1
TGI: > 100 µM

compound: COc1ccc(C2COc3c(ccc(OC)c3OC)C2=O)cc1OC (configuration not stated)
TGI: > 100 µM

compound: N#CC(C#N)=c1c(=O)c2c3ccccc3cc3cccc1c32
TGI: > 100 µM

compound: O=C1C=C(Nc2ccccc2)c2ccccc2C1=O
TGI: 6.73 µM

compound: COc1ccc(-c2nc3sc(-c4cc(OC)c(OC)c(OC)c4)nn3c2/C=C2/C(=O)Nc3ccc(F)cc32)cc1
TGI: 44 µM

compound: CC1(C)CNC(=O)C2(CCCO2)CNC(C)(C)CNC(=O)C2(CCCO2)CN1 (configuration not stated)
TGI: > 10 µM

compound: CC(C)[Si](OC12CCC(CC1O)CC2CO)(C(C)C)C(C)C (configuration not stated)
TGI: 28.6 µM

compound: CCCCn1c(=O)[nH]c(N)c([C@@H]2c3c([nH]c(=O)n(CCCC)c3=O)Oc3ccc4ccccc4c32)c1=O
TGI: 3.36 µM

compound: Brc1ccc(C2=NCSC(c3ccc(Br)cc3)=N2)cc1
TGI: > 100 µM

compound: O=C(O)c1cc(CCc2ccc(O)c(O)c2)ccc1O
TGI: > 100 µM

compound: NCCCCCC(CCN)SCC1OC(n2cnc3c(N)ncnc32)C(O)C1O (configuration not stated)
TGI: > 1500 µM

compound: CSC(=S)CC(O)[C@@H]1CC2c3ccccc3C1c1ccccc12 (some centres not stated)
TGI: 26.7 µM

compound: O=c1c2ccccc2nc(-c2cccc([N+](=O)[O-])c2)n1O
TGI: > 100 µM

compound: COc1ccc2c(c1)[C@@H](NC(C)=O)CCc1cc(OC)c(OC)c(OC)c1-2
TGI: > 10.5 µM

compound: O=C(NCc1cn(Cc2cccc(Oc3ccccc3)c2)nn1)c1cccnc1Nc1ccc(F)cc1
TGI: > 100 µM

compound: C[N+]1(C)C2CC(OC(=O)C(CO)c3ccccc3)CC1C1OC12 (configuration not stated)
TGI: > 100 µM

compound: C=CCN1C(=O)CC2[C@@H]3CCc4cc(O)ccc4C3CC[C@]2(C)C1=O (some centres not stated)
TGI: > 10 µM

compound: O=C1CSCC(=O)Nc2ccccc2N1
TGI: > 100 µM

compound: ClC1=C(Cl)C(Cl)(C2(Cl)C(Cl)=C(Cl)C(Cl)=C2Cl)C(Cl)=C1Cl
TGI: 3.33 µM

compound: O=C(/C=C/c1ccccc1)NC1C=Nc2ccc([N+](=O)[O-])cc2NC1=O (configuration not stated)
TGI: > 100 µM

compound: C[C@@H]1C(=O)CC2C(C)(C)CCC[C@]2(C)[C@@]12CC[C@]1(C=COC1)O2 (some centres not stated)
TGI: > 100 µM

compound: NC(N)NCCCc1cn2c(n1)C1CCCN1C(=O)C2Cc1ccccc1 (configuration not stated)
TGI: > 100 µM

compound: C#CCOC(=O)C(N)CC(N)=O (configuration not stated)
TGI: > 100 µM

compound: O=C(c1ccc2ccccc2c1)C1(I)S(=O)(=O)OCCOS1(=O)=O
TGI: > 100 µM

compound: Sc1cccc2cccnc12
TGI: 17.3 µM

compound: COc1ccc2c(c1)/C(=C/c1c(O)[nH]c(=S)[nH]c1=O)C=N2
TGI: > 100 µM

compound: CCC(C)N1CN(c2ccccc2)C2(CCN(CC3COc4ccccc4O3)CC2)C1=O (configuration not stated)
TGI: > 100 µM

compound: CC(=O)OCC1OC(N2C(=O)[C@@H](Oc3ccccc3)[C@H]2/C=C/c2ccccc2)C(OC(C)=O)C(OC(C)=O)C1OC(C)=O (some centres not stated)
TGI: > 100 µM

compound: O=c1[nH]c(=S)[nH]cc1CN1CCOCC1
TGI: > 100 µM

compound: COc1ccc(/C=C/C(=O)c2cc(OC)cc(OC)c2)cc1
TGI: 7.3 µM

compound: CC(=O)N1C/C(=C\c2ccccc2)C(=O)/C(=C/c2ccccc2)C1
TGI: 31.5 µM
